# Protocol details: Pharmacokinetic analysis of BTSA1.2 in mice
# Type: in vivo
# Experimental setup: male, ICR (CD-1), mouse, plasma, iv, 1 mg/kg, IV 1 mg/kg, mice plasma, Mean; read-out: T1/2 (converted)
Property name: half-life (h)
# number only, unit h dropped from output

Assign half-life to the following record: "Cc1nc(N/N=C2\C(=O)N(c3nc(-c4ccccc4)cs3)N=C2c2ccccc2)sc1C"
24.6

---

# Protocol details: Pharmacokinetic analysis of BTSA1.2 in mice
# Assay type: in vivo
# Experimental setup: male, ICR (CD-1), mouse, plasma, po, 3 mg/kg, PO 3 mg/kg, mice plasma, Mean; read-out: T1/2 (converted)
Property name: half-life
In your response, put the unit directly after the numeric value.

Assign half-life to the following record: "Cc1nc(N/N=C2\C(=O)N(c3nc(-c4ccccc4)cs3)N=C2c2ccccc2)sc1C"
14.4 h

---

# Protocol details: Pharmacokinetic analysis of BTSA1.2 in mice
# Assay type: in vivo
# Experimental setup: male, ICR (CD-1), mouse; IV 1 mg/kg, mice plasma, Mean; read-out: MRTINF_obs
Property name: MRT inf (h)
# number only, unit h dropped from output

Assign MRT inf to the following record: Cc1nc(N/N=C2\C(=O)N(c3nc(-c4ccccc4)cs3)N=C2c2ccccc2)sc1C [BTSA1.2]
35.7

---

# Protocol details: Pharmacokinetic analysis of BTSA1.2 in mice
# Type: in vivo
# Experimental setup: male, ICR (CD-1), mouse; PO 3 mg/kg, mice plasma, Mean; read-out: AUCinf_obs
# Method: […] […]. ICR (CD-1) male mice were fasted at least 3 hrs and water was available ad libitum before the study. Animals were housed in a controlled environment, target conditions: temperature 18-29° C., relative humidity 30 to 70%. Temperature and relative humidity were monitored daily. […] Experiments performed at […] joint Biopharmacy Laboratory.
Property name: AUC(0-inf) (ng·h/mL)
# number only, unit ng·h/mL dropped from output

Assign AUC(0-inf) to the following record: Cc1nc(N/N=C2\C(=O)N(c3nc(-c4ccccc4)cs3)N=C2c2ccccc2)sc1C [BTSA1.2]
70000

---

# Protocol details: Pharmacokinetic analysis of BTSA1.2 in mice
# Type: in vivo
# Experimental setup: male, ICR (CD-1), mouse, plasma, po, 3 mg/kg, oral administration; read-out: half-life (T1/2) in mouse plasma (converted)
Property name: half-life

Assign half-life to the following record: Cc1nc(N/N=C2\C(=O)N(c3nc(-c4ccccc4)cs3)N=C2c2ccccc2)sc1C [BTSA1.2]
~14 h

---

# Protocol details: Pharmacokinetic analysis of BTSA1.2 in mice
# Type: in vivo
# Experimental setup: male, ICR (CD-1), mouse; IV 1 mg/kg, mice plasma, Mean
Property name: AUC(0-t) (ng·h/mL)
# number only, unit ng·h/mL dropped from output

Assign AUC(0-t) to the following record: "Cc1nc(N/N=C2\C(=O)N(c3nc(-c4ccccc4)cs3)N=C2c2ccccc2)sc1C"
31900

---

# Protocol details: Pharmacokinetic analysis of BTSA1.2 in mice
# Assay type: in vivo
# Experimental setup: male, ICR (CD-1), mouse, plasma; PO 3 mg/kg vs IV 1 mg/kg, mice; read-out: F(%)
Property name: bioavailability (%)
# number only, unit % dropped from output

Assign bioavailability to the following record: "Cc1nc(N/N=C2\C(=O)N(c3nc(-c4ccccc4)cs3)N=C2c2ccccc2)sc1C"
49.2

---

# Protocol details: Pharmacokinetic analysis of BTSA1.2 in mice
# Format: in vivo
# Experimental setup: male, ICR (CD-1), mouse; PO 3 mg/kg, mice plasma, Mean
# Method: […] […]. ICR (CD-1) male mice were fasted at least 3 hrs and water was available ad libitum before the study. Animals were housed in a controlled environment, target conditions: temperature 18-29° C., relative humidity 30 to 70%. Temperature and relative humidity were monitored daily. […] Experiments performed at […] joint Biopharmacy Laboratory.
Property name: AUC(0-t) (ng·h/mL)
# number only, unit ng·h/mL dropped from output

Assign AUC(0-t) to the following record: "Cc1nc(N/N=C2\C(=O)N(c3nc(-c4ccccc4)cs3)N=C2c2ccccc2)sc1C"
47000

---

# Protocol details: Pharmacokinetic analysis of BTSA1.2 in mice
# Assay type: in vivo
# Experimental setup: male, ICR (CD-1), mouse, plasma, 3 mg/kg; oral administration, mice; read-out: peak concentration (Cmax)
Property name: Cmax

Assign Cmax to the following record: Cc1nc(N/N=C2\C(=O)N(c3nc(-c4ccccc4)cs3)N=C2c2ccccc2)sc1C [BTSA1.2]
~8 µM

---

# Protocol details: Pharmacokinetic analysis of BTSA1.2 in mice
# Type: in vivo
# Experimental setup: male, ICR (CD-1), mouse, plasma, 3 mg/kg; oral administration, mice; read-out: oral bioavailability (% F)
Property name: bioavailability

Assign bioavailability to the following record: Cc1nc(N/N=C2\C(=O)N(c3nc(-c4ccccc4)cs3)N=C2c2ccccc2)sc1C [BTSA1.2]
~50%

---

# Protocol details: Pharmacokinetic analysis of BTSA1.2 in mice
# Format: in vivo
# Experimental setup: male, ICR (CD-1), mouse; IV 1 mg/kg, mice plasma, Mean; read-out: AUCinf_obs
Property name: AUC(0-inf) (ng·h/mL)
# number only, unit ng·h/mL dropped from output

Assign AUC(0-inf) to the following record: Cc1nc(N/N=C2\C(=O)N(c3nc(-c4ccccc4)cs3)N=C2c2ccccc2)sc1C [BTSA1.2]
67700

---

# Protocol details: Pharmacokinetic analysis of BTSA1.2 in mice
# Type: in vivo
# Experimental setup: male, ICR (CD-1), mouse; PO 3 mg/kg, mice plasma, Mean
Property name: Tmax (h)
# number only, unit h dropped from output

Assign Tmax to the following record: "Cc1nc(N/N=C2\C(=O)N(c3nc(-c4ccccc4)cs3)N=C2c2ccccc2)sc1C"
3.33

---

# Protocol details: Pharmacokinetic analysis of BTSA1.2 in mice
# Assay type: in vivo
# Experimental setup: male, ICR (CD-1), mouse; IV 1 mg/kg, mice plasma, Mean
Property name: Tmax
In your response, put the unit directly after the numeric value.

Assign Tmax to the following record: "Cc1nc(N/N=C2\C(=O)N(c3nc(-c4ccccc4)cs3)N=C2c2ccccc2)sc1C"
2 h

---

# Protocol details: in vivo
# Experimental setup: both, CD1-IGS, mouse, po
Property name: MTD (mg/kg)
# number only, unit mg/kg dropped from output

Assign MTD to the following record: Cc1nc(N/N=C2\C(=O)N(c3nc(-c4ccccc4)cs3)N=C2c2ccccc2)sc1C [BTSA1.2]
200

---

# Protocol details: Pharmacokinetic analysis of BTSA1.2 in mice
# Assay type: in vivo
# Experimental setup: male, ICR (CD-1), mouse; PO 3 mg/kg, mice plasma, Mean; read-out: MRTINF_obs
Property name: MRT inf (h)
# number only, unit h dropped from output

Assign MRT inf to the following record: "Cc1nc(N/N=C2\C(=O)N(c3nc(-c4ccccc4)cs3)N=C2c2ccccc2)sc1C"
21.7

---

A set of compounds tested on BAX (Homo sapiens), with measured pIC50:
Kindly note that pIC50 refers to -log10 of the concentration in mol/L and answer with the value alone.

Send back BAX (Homo sapiens) pIC50 of "O=C(O)c1cccc(NN=C2C(=O)N(c3nc(-c4ccccc4)cs3)N=C2c2ccccc2)c1" only.
6.30

Okay, next one:
Send back BAX (Homo sapiens) pIC50 of "Cc1nc(N/N=C2\C(=O)N(c3nc(-c4ccccc4)cs3)N=C2c2ccccc2)sc1C" only.
6.96

---

# Protocol details: Pharmacokinetic analysis of BTSA1.2 in mice
# Type: in vivo
# Experimental setup: male, ICR (CD-1), mouse; IV 1 mg/kg, mice plasma, Mean; read-out: Cmax
Property name: Cmax (ng/mL)
# number only, unit ng/mL dropped from output

Assign Cmax to the following record: "Cc1nc(N/N=C2\C(=O)N(c3nc(-c4ccccc4)cs3)N=C2c2ccccc2)sc1C"
2670

// provenance: patent US20230372307A1
